molecular target: BRD4-BD1 (Homo sapiens (Human), UniProt O60885); assay: DSF selectivity profiling; type: binding

compound	resultUnit	BRD4-BD1 ΔTm
CCC(/C=C1\CCn2c1nc(=O)c1c(Cl)cccc12)CC [Compound 7, reference compound]	°C	−0.2
Cc1cccc(C2NC(=O)c3c(Cl)cccc3N2)c1C (stereo not drawn) [Compound 25]	°C	0.6
Cc1cccc(C)c1C1NC(=O)c2c(Cl)cccc2N1 (stereo not drawn) [Compound 26]	°C	0
CN(C)/C=C1\CCn2c1nc(=O)c1c(Cl)cccc12 [Compound 2, reference compound]	°C	0.1
Cc1cccc(C2NC(=O)c3c(Br)cccc3N2)c1 (stereo not drawn) [Compound 34]	°C	0.3
Cc1ccccc1C1NC(=O)c2c(Cl)cccc2N1 (stereo not drawn) [Compound 15]	°C	0.1

The reported measurements were obtained from patent US20240190828A1.
